Target: Carbonic anhydrase 2 (Homo sapiens)
Assay: Inhibition of recombinant human carbonic anhydrase 2 incubated for 10 mins prior to testing measured for 5 to 10 secs by phenol red-based stopped-flow CO2 hydration assay
pKi: −log10 of the molar value.
Outcome: true (1) for pKi of at least 7; false (0) for anything lower.

Answer whether pKi of NS(=O)(=O)c1ccc(-c2nnc(SCC(=O)Nc3cccc([N+](=O)[O-])c3)o2)cc1 is greater than or equal to 7. true (1)

Proceed to NS(=O)(=O)c1ccc(-c2nnc(SCC(=O)c3ccccc3)o2)cc1 false (0)

Proceed to NS(=O)(=O)c1ccc(-c2nnc(SCC(=O)c3ccc([N+](=O)[O-])cc3)o2)cc1 true (1)

Proceed to NS(=O)(=O)c1ccc(-c2nnc(SCC(=O)c3cccc([N+](=O)[O-])c3)o2)cc1 true (1)

Proceed to NS(=O)(=O)c1ccc(-c2nnc(SCC(=O)c3cccc(Cl)c3)o2)cc1 true (1)

Proceed to COc1ccc(NC(=O)CSc2nnc(-c3ccc(S(N)(=O)=O)cc3)o2)cc1 true (1)

Proceed to NS(=O)(=O)c1ccc(-c2nnc(SCC(=O)Nc3ccc(Br)cc3)o2)cc1 false (0)

----------
Biological target: Carbonic anhydrase 9 (Homo sapiens)
Test: Inhibition of recombinant human carbonic anhydrase 9 incubated for 10 mins prior to testing measured for 5 to 10 secs by phenol red-based stopped-flow CO2 hydration assay
Class assignment keyed on Ki, ranges lower level = under 50 nM, middle level = from 50 nM up to 800 nM, upper level = 800 nM and over

Bin this entry: Cc1ccc(NC(=O)CSc2nnc(-c3ccc(S(N)(=O)=O)cc3)o2)cc1 middle level

Proceed to COc1ccc(NC(=O)CSc2nnc(-c3ccc(S(N)(=O)=O)cc3)o2)cc1 lower level

Proceed to NS(=O)(=O)c1ccc(-c2nnc(SCC(=O)Nc3cccc([N+](=O)[O-])c3)o2)cc1 lower level

Proceed to COc1cccc(NC(=O)CSc2nnc(-c3ccc(S(N)(=O)=O)cc3)o2)c1 middle level

Proceed to NS(=O)(=O)c1ccc(-c2nnc(SCC(=O)c3ccc(F)cc3)o2)cc1 upper level

Proceed to NS(=O)(=O)c1ccc(-c2nnc(SCC(=O)c3cccc([N+](=O)[O-])c3)o2)cc1 middle level

Proceed to COc1cccc(C(=O)CSc2nnc(-c3ccc(S(N)(=O)=O)cc3)o2)c1 upper level

Proceed to NS(=O)(=O)c1ccc(-c2nnc(SCC(=O)Nc3ccc(Cl)cc3)o2)cc1 middle level

Proceed to NS(=O)(=O)c1ccc(-c2nnc(SCC(=O)c3ccc(Cl)cc3)o2)cc1 upper level

----------
Can you tell me pKi for the items I'm about to list?
Target: Carbonic anhydrase 12 (Homo sapiens, UniProt O43570)
Sequence (O43570 whole entry): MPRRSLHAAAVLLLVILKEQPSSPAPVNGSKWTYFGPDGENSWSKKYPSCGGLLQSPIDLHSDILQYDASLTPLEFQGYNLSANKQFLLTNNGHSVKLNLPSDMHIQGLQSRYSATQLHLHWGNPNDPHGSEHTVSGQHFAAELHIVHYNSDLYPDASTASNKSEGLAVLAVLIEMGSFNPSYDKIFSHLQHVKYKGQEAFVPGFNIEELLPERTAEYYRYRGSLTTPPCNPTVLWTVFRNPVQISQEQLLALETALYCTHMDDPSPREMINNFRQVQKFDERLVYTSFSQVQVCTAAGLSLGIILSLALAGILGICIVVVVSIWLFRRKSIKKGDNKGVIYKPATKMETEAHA
Test: Inhibition of recombinant human carbonic anhydrase 12 incubated for 10 mins prior to testing measured for 5 to 10 secs by phenol red-based stopped-flow CO2 hydration assay
To interpret pKi, take it as minus log10 of a concentration measured in moles per litre.

Requested read-out pKi, target or system Carbonic anhydrase 12 (Homo sapiens, UniProt O43570), entry COc1cccc(NC(=O)CSc2nnc(-c3ccc(S(N)(=O)=O)cc3)o2)c1 6.16

Proceed to NS(=O)(=O)c1ccc(-c2nnc(SCC(=O)Nc3cccc(Cl)c3)o2)cc1 6.40

Proceed to NS(=O)(=O)c1ccc(-c2nnc(SCC(=O)Nc3ccc(F)cc3)o2)cc1 6.23

Proceed to NS(=O)(=O)c1ccc(-c2nnc(SCC(=O)Nc3ccccc3)o2)cc1 6.44

Proceed to NS(=O)(=O)c1ccc(-c2nnc(SCC(=O)c3ccc([N+](=O)[O-])cc3)o2)cc1 6.53

Proceed to COc1ccc(NC(=O)CSc2nnc(-c3ccc(S(N)(=O)=O)cc3)o2)cc1 6.57

Proceed to NS(=O)(=O)c1ccc(-c2nnc(SCC(=O)Nc3cccc([N+](=O)[O-])c3)o2)cc1 6.59

Proceed to NS(=O)(=O)c1ccc(-c2nnc(SCC(=O)c3ccc(F)cc3)o2)cc1 5.65

Proceed to COc1cccc(C(=O)CSc2nnc(-c3ccc(S(N)(=O)=O)cc3)o2)c1 6.31

Proceed to NS(=O)(=O)c1ccc(-c2nnc(SCC(=O)c3cccc(Cl)c3)o2)cc1 6.42
